The measured values listed here are drawn from ChEMBL document CHEMBL5107935.

Overview of recorded EC50 for various molecules
- target desc: Delta-type opioid receptor (Homo sapiens)
- Sequence (P41143 whole entry): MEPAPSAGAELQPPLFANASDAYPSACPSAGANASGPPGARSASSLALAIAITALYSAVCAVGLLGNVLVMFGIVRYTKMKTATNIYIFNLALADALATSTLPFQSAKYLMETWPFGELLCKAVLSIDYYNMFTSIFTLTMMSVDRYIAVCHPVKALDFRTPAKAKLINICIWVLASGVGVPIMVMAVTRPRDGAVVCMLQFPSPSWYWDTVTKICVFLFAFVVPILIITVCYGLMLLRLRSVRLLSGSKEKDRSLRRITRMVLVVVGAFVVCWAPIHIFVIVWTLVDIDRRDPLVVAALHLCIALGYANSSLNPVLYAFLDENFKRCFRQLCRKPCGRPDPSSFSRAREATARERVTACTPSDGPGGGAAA
- test summary: Agonist activity at human delta opioid receptor expressed in CHO cells co-expressing beta-arrestin2 assessed as beta-arrestin2 recruitment measured after 90 mins by PathHunter assay

molecule smiles | EC50 / nM
CNC(=O)[C@H](CC(C)C)NC(=O)[C@H](Cc1ccccc1)NC(=O)CNC(=O)C/C=C(\F)[C@@H](N)Cc1ccc(O)cc1 | 667
CCNC(=O)[C@H](CC(C)C)NC(=O)[C@H](Cc1ccccc1)NC(=O)CNC(=O)C/C=C(\F)[C@@H](N)Cc1ccc(O)cc1 | 695
CC(C)C[C@H](NC(=O)[C@H](Cc1ccccc1)NC(=O)CNC(=O)C/C=C(\F)[C@@H](N)Cc1ccc(O)cc1)C(=O)NC1CC1 | 693
CC(C)C[C@H](NC(=O)[C@H](Cc1ccccc1)NC(=O)CNC(=O)C/C=C(\F)[C@@H](N)Cc1ccc(O)cc1)C(=O)N(C)C | 3820
CC(C)C[C@H](NC(=O)[C@H](Cc1ccccc1)NC(=O)CNC(=O)C/C=C(\F)[C@@H](N)Cc1ccc(O)cc1)C(N)=O | 959
